Read-out: Interleukin-8 (IL8), CXCL8 (gene 3576)
Assay: BSK_SAg_IL8: BioMAP Diversity Plus: SAg Assay for Interleukin-8 (IL8) Biomarker Activity (AID 2283094)
Conditions: primary human HUVEC with PBMC; actives raise or lower the signal
The source made the active and inactive calls. How the source made its calls: active means hit-call score of the fitted dose curve at least 0.9, where 1 is the maximum; inactive means score below 0.9.
quantity kind: AC50

Example results:
CC(=O)Nc1ccc(O)cc1 : inactive
CN(CCO)S(=O)(=O)C(F)(F)C(F)(F)C(F)(F)C(F)(F)C(F)(F)C(F)(F)C(F)(F)C(F)(F)F : inactive
CCCCCCCCCCCC : inactive
Oc1cc2ccccc2cc1O : inactive
CN(C)c1ccc(C(=C2C=CC(=[N+](C)C)C=C2)c2ccccc2)cc1 : 2.78 µM (active)

Let's switch to this molecule now.
Lookup: For the molecule shown here, C[C@]12CC[C@@H]3c4ccc(O)cc4CC[C@H]3[C@@H]1C[C@@H](O)[C@@H]2O , give the reported AC50.
Found: inactive

----------
Target: human Beta-secretase (BACE), BACE1 (gene 23621) (UniProt P56817)
Sequence (P56817 whole entry, looked up): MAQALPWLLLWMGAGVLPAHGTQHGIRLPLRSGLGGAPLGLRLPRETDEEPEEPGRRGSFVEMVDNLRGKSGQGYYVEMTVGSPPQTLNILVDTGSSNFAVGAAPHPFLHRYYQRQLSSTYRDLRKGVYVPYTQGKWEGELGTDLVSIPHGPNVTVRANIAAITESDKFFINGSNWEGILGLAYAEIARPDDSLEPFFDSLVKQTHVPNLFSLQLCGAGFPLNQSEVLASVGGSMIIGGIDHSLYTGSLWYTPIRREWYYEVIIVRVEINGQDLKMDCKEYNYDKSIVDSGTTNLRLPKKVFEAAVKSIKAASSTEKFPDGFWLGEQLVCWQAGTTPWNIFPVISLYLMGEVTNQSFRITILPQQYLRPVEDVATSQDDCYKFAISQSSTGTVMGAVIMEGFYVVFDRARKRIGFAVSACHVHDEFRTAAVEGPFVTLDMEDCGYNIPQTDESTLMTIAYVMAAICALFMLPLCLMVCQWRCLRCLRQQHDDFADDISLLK
Test: NVS_ENZ_hBACE: NovaScreen (NVS) Enzymatic Assay for human Beta-secretase (BACE) (AID 2283140);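 further: hits are inhibitors that reduce fluorescent substrate signal versus DMSO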
Records with an inconclusive call do not appear. Activity calls are given as the source filed them. How the source made its calls: active means hit-call score of the fitted dose curve at least 0.9, where 1 is the maximum; inconclusive means response in the unintended direction; inactive means score below 0.9.
Pick from active, inactive when you respond.

Lookup: Just curious, what result did CN(Cc1cnc2nc(N)nc(N)c2n1)c1ccc(C(=O)N[C@@H](CCC(=O)O)C(=O)O)cc1 get here?
Found: inactive

Lookup: Outcome? CCOC(C)=O
Found: inactive

----------
Read-out: Interleukin 6 Receptor (IL6R), IL6R (gene 3570)
Experiment: LTEA_HepaRG_IL6R: Life Technologies and Expression Analysis (LTEA) Assay for Interleukin 6 Receptor (IL6R) using HepaRG (AID 2283510)
Conditions: mRNA level, 48 h; actives raise or lower the signal
Method: LTEA_HepaRG is a cell based, multiplexed-readout assay that uses HepaRG, a human liver cell line, with measurements taken at 48 hours after chemical dosing on a 96-well plate.LTEA_HepaRG_IL6R is one of 102 assay component(s) measured in the LTEA HepaRG cell culture assay. It is a marker of Inflammation.Data from the assay component LTEA_HepaRG_IL6R was analyzed into 1 endpoint. […]
Calls of active or inactive are those of the source. Rule for the calls: active = hit-call score of the fitted dose curve at least 0.9, where 1 is the maximum; inactive = score below 0.9.
Give one outcome, nothing more. List: active, inactive

Please review the following examples before continuing.
CCCCCCCCCCCCOS(=O)(=O)O : active
O=C(c1ccccc1)c1ccccc1 : inactive
CC(=O)Nc1ccc(O)cc1 : inactive
N=C(N)c1ccc(OCCCCCOc2ccc(C(=N)N)cc2)cc1 : active
CCCCC(CC)C(=O)O (stereo unspecified) : inactive
CCCCC=O : inactive

Lookup: Outcome? CN(Cc1cnc2nc(N)nc(N)c2n1)c1ccc(C(=O)N[C@@H](CCC(=O)O)C(=O)O)cc1
Found: inactive

----------
Test: ATG_CMV_CIS: Attagene CIS-FACTORIAL HepG2 Assay for human CMV (Internal Marker) (AID 2282928);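 further: endpoint acts as a background internal control marker rather than a target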
Conditions: HepG2 CMV promoter reporter, transcription factor profiling; actives raise or lower the signal
The source made the active and inactive calls. How the source made its calls: active means hit-call score of the fitted dose curve at least 0.9, where 1 is the maximum; inactive means score below 0.9.
quantity kind: outcome

Before answering, review these 6 worked examples.
CN(C)CCOC(c1ccccc1)c1ccccc1 : inactive
FC(F)(F)C1(F)C(F)(F)C(F)(F)C(F)(F)C1(F)F : inactive
Cc1cncc(C)c1 : inactive
COC(=O)CC(C(C)=O)C(=O)OC (centres undefined) : inactive
CCCCCCC(C)(C)C(=O)O : inactive
O=C1Cc2ccccc2N1c1c(Cl)cccc1Cl : inactive

Lookup: Quick check: outcome of C=CC(C)(CCC=C(C)C)OC(C)=O (centres undefined) ?
Found: inactive

Lookup: Requested read-out: outcome. Entry: O=C1NS(=O)(=O)c2ccccc21
Found: inactive

Lookup: Fill in the blank: the reported outcome of Cc1ccccc1C(OCCN(C)C)c1ccccc1 (centres undefined) is ____.
Found: inactive

Lookup: Give the measured outcome of CC(=O)CC(C)C .
Found: inactive

Lookup: Recorded outcome for CCc1ccccc1O , please?
Found: inactive

Lookup: Data request, read-out outcome, for C=CC(F)(F)C(F)(F)C(F)(F)C(F)(F)F
Found: inactive

Lookup: Would you kindly share the measured outcome for CC(C)(C)C1CCCCC1O (centres undefined) ?
Found: inactive

Lookup: Which value of outcome has been reported for Cc1cc(C(=C2C=CC(=Nc3ccc(S(=O)(=O)O)cc3)C=C2)c2ccc(Nc3ccc(S(=O)(=O)O)cc3)cc2)cc(S(=O)(=O)O)c1N in the records?
Found: inactive
